measured.quantity: melting point

> print(dat)
                                   compound  reported.value
1      Nc1c(N=O)c(=O)n(CC2CC2)c(=O)n1CC1CC1   228 to 229 °C
2           O=c1c2ccc(O)c(O)c2oc2cccc(O)c12   300 to 301 °C
3  CC1CC(=Cc2ccccc2O)C(=O)O1 (centres undefined)   112 to 114 °C
4  C=C1N(S(=O)(=O)c2ccc(C)cc2)C(=O)OC12CCN(Cc1ccccc1)CC2   157 to 158 °C
5  CC(=O)OC1C=C(C)C(=O)CC(C)(C)C1OC(C)=O (centres undefined)     68 to 69 °C
6  O=[N+]([O-])c1ccc(Oc2ccc(N3CCN(c4ccncc4)CC3)cc2)nc1   174 to 175 °C
7  COC(CNC(=O)N(N=Cc1ccccc1)c1cc(Cl)c(Cc2ccc(C(=O)c3ccc(Cl)cc3)cc2)c(Cl)c1)OC   158 to 160 °C
8  CNC(C(N)=O)c1cn(C2CCc3c(F)cc(F)cc3C2)c(=S)[nH]1 (centres undefined)   212 to 213 °C

Here is the next item to consider.
Endpoint output: melting point of `COc1cc2[nH]c(C)c(CCN3CCN(NC(=O)Nc4ccccc4)CC3)c2cc1OC` . Value?
170 to 173 °C

###

measured.quantity: melting point

Guide cases for melting point, answers given:
> print(dat)
                                   compound  reported.value
1  COC1(c2csc(Sc3ccc4c(c3)OCC/C4=N\O)c2)CCOCC1   137 to 138 °C
2   CCOC(=O)c1oc2c([N+](=O)[O-])c(O)ccc2c1C   186 to 188 °C

For the compound shown here, `CCOC(=O)c1c(C)noc1NS(=O)(=O)c1ccccc1-c1ccc(CC(C)C)cc1` , give the reported melting point.
133 to 134 °C

Check CCOC(=O)C1=C(N2CC2C(N)=O)CCCC1 (centres undefined) too.
101 to 104 °C

Please give the result for `O=[N+]([O-])C=C1CN=C(c2ccccc2F)c2cc(I)ccc2N1` too.
214 to 216 °C

Then `CONC(=O)Nc1ccc(-c2sc3c(c2CN(C)CCc2ccccn2)c(=O)n(-c2ccccn2)c(=O)n3Cc2c(F)cccc2F)cc1` ?
194 to 196 °C

Quick one: `O=C(Nc1ccc2ccccc2c1C(=O)O)OCc1cc2cc(-c3ccccc3)ccc2o1`
174 to 177 °C

Lookup Cc1c(C)c2c(c(C)c1O)CCC(C)(CCOC(=O)C(C)c1ccc(-c3ccccc3)c(F)c1)O2 (centres undefined)
85 to 87 °C

Also `CCc1nc(C)cn1CO` , if possible.
83.1 to 86.3 °C

###

Each entry below carries its recorded melting point.

Past entries and their recorded results:
> print(dat)
                                   compound  measured.quantity  reported.value
1  CCOC(=O)c1c(N2CCN(C(=O)c3cccs3)CC2)c2cnccc2n(Cc2cccc(F)c2)c1=O      melting point          135 °C
2  CC(C)n1nc(-c2c(NCC(N)=O)nc(N)nc2-c2ccccc2)ccc1=O      melting point   235 to 238 °C
3  O=C(O)c1cc(-n2c(-c3ccccc3)cc3c2CCCC3)ccc1S      melting point   186 to 188 °C
4       O=C(O)c1cc([N+](=O)[O-])c(F)c(F)c1F      melting point   128 to 129 °C
5  Cc1oncc1C(=O)Nc1ccc(-n2nc(C(F)(F)F)cc2C2CC2)cc1      melting point     90 to 95 °C

May I ask what melting point has been recorded for `Cc1c(C)c(OCC(=O)N2CCN(c3ccc(N=C(N)c4cccs4)cc3)CC2)c(C)c(C)c1O` ?
210 to 212 °C

Quick one: CC(C)C(c1cncnc1C(F)(F)F)N1CCN(c2ccccc2)C1=O (stereo not given)
126 to 128 °C

Please do the same for `CN(C)CCCNCc1ccc(-c2cc3ncnc(Nc4ccc5[nH]ccc5c4)c3s2)cc1` as well.
148 to 160 °C

Also, O=C1c2ccccc2C(Nc2ccccn2)N1CCCN1CC=C(c2ccccc2)CC1 (stereo not given) please.
153 °C

Likewise for `COC(=O)c1c(Cl)cc(Cl)cc1NC(=O)CSc1ccc(NS(=O)(=O)c2ccc(Cl)cc2)cc1` ?
120 to 123 °C

Ok, now `CN1C(=O)C=C[C@]2(C)c3ccc(-c4cccc5ccccc45)cc3CC[C@@H]12`
172 to 173 °C

Next: `Cc1nn2cccnc2c1C#N`
179 to 181 °C

Reference for the values: a melting point compilation (Tetko et al.; mined from patent text by program, amines drawn as free bases though some values may be those of a salt)
